# credit: paper doi:10.1101/362293v1

# experimental-system: UniProtKB P0A2F2
# Sequence (P0A2F2 whole entry): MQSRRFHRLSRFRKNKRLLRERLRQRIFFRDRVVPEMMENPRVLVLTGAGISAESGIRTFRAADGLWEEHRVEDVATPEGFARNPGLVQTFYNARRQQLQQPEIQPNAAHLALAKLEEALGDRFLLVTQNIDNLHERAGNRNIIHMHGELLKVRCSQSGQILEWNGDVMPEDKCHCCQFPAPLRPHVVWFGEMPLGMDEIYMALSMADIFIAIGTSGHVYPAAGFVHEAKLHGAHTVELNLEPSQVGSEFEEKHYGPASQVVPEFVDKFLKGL
# test-summary: affinity measurement, method not given
observation-type: Kd
Respond with a number, then the unit of measure.

For UniProtKB P0A2F2, give Kd of the listed molecule: Nc1nc2c(ncn2[C@@H]2O[C@@H]3CO[P@](=O)(O)O[C@H]4[C@@H](O)[C@H](n5cnc6c(=O)[nH]c(N)nc65)O[C@@H]4CO[P@](=O)(O)O[C@H]3[C@H]2O)c(=O)[nH]1
15.5 µM

----------
# experimental-system: CobB (Escherichia coli, UniProt P75960, R8A)
# Sequence (P75960 1-279 R8A): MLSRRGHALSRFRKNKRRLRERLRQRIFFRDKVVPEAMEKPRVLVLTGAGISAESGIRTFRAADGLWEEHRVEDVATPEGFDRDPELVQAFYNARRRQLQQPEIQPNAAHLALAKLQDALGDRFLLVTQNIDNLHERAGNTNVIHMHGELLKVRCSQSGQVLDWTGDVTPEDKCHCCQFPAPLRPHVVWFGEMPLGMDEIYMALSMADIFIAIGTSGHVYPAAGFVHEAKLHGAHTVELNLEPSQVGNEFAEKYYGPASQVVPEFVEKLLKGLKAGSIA
# test-summary: isothermal titration calorimetry
observation-type: pKd
Scale: negative log10 of molar concentration, which is what pKd denotes.

Report its pKd with CobB (Escherichia coli, UniProt P75960, R8A) as the test system: Nc1nc2c(ncn2[C@@H]2O[C@@H]3CO[P@](=O)(O)O[C@H]4[C@@H](O)[C@H](n5cnc6c(=O)[nH]c(N)nc65)O[C@@H]4CO[P@](=O)(O)O[C@H]3[C@H]2O)c(=O)[nH]1
2.74

----------
# experimental-system: CobB (Escherichia coli, UniProt P75960, E21A)
# Sequence (P75960 1-279 E21A): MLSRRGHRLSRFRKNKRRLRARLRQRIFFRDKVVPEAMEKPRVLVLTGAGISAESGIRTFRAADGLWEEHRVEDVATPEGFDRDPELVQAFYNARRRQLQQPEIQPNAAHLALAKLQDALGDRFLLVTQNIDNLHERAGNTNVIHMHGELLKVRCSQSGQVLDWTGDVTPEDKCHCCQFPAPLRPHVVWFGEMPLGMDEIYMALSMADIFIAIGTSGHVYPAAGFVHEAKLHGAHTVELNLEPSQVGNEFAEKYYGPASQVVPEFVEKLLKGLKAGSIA
# test-summary: isothermal titration calorimetry
observation-type: pKd
The value called pKd is obtained by taking minus log10 of the concentration in mol/L.

Give the measured pKd for Nc1nc2c(ncn2[C@@H]2O[C@@H]3CO[P@](=O)(O)O[C@H]4[C@@H](O)[C@H](n5cnc6c(=O)[nH]c(N)nc65)O[C@@H]4CO[P@](=O)(O)O[C@H]3[C@H]2O)c(=O)[nH]1
3.49
